This section presents substances with their documented MCV values.
Assay: Hematology assays in cynomolgus monkeys (Example 46)
Assay type: in vivo
Settings: Day-5
Strand notation (5' to 3'): a small letter for the sugar, then the base; units joined by * are phosphorothioate-linked, units joined directly phosphodiester-linked; [ ] holds rarer units or linkages, { } end groups; capitals alone tell only the bases. e = 2'-O-(2-methoxyethyl) (MOE); [5mC] = 5-methylcytosine; d = 2'-deoxy (DNA)
Give the value, in units of fL, as a plain number.

For the substance shown here, ISIS 416858: MOE gapmer, nucleobases 1275 to 1318 of SEQ ID NO: 1 (Table 8) (antisense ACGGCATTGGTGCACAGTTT; MOE gapmer, wing and gap sizes not given here) , give the reported MCV.
79

For the substance shown here, ISIS 449709: 3-8-3, 4-8-4, 2-10-2, 3-10-3 or 4-10-4 MOE microwalk gapmer (Table 46) (antisense eG*e[5mC]*eA*e[5mC]*dA*dG*dT*dT*dT*d[5mC]*dT*dG*dG*d[5mC]*eA*eG*eG*e[5mC]) , give the reported MCV.
74

For the substance shown here, ISIS 416850: MOE gapmer, nucleobases 1275 to 1318 of SEQ ID NO: 1 (Table 8) (antisense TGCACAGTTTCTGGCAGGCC; MOE gapmer, wing and gap sizes not given here) , give the reported MCV.
77

For the substance shown here, ISIS 449710: 3-8-3, 4-8-4, 2-10-2, 3-10-3 or 4-10-4 MOE microwalk gapmer (Table 46) (antisense e[5mC]*eA*e[5mC]*dA*dG*dT*dT*dT*d[5mC]*dT*dG*dG*d[5mC]*eA*eG*eG) , give the reported MCV.
77

For the substance shown here, ISIS 445531: 5-8-5 or 6-8-6 MOE microwalk gapmer (Table 44) (antisense eG*eG*e[5mC]*eA*eT*dT*dG*dG*dT*dG*d[5mC]*dA*d[5mC]*eA*eG*eT*eT*eT) , give the reported MCV.
74

* * *

Tested on: Factor 11 protein
Assay: Factor 11 protein in monkey plasma by sandwich ELISA (Example 45)
Assay type: in vivo, cynomolgus monkeys
Conditions: day 57; escalating dose regimen; plasma ELISA
Response field label takes yes (1) when Inhibition of Factor 11 protein relative to the PBS control is strictly below 50% and no (0) in all other cases.

Sample answers from the record:
substance	experimental.target	assigned.category
ISIS 416858: MOE gapmer, nucleobases 1275 to 1318 of SEQ ID NO: 1 (Table 8) (antisense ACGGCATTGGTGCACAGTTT; MOE gapmer, wing and gap sizes not given here)	Factor 11 protein	no (0)
ISIS 416838: MOE gapmer, nucleobases 1018 to 1042 of SEQ ID NO: 1 (Table 6) (antisense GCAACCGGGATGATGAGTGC; MOE gapmer, wing and gap sizes not given here)	Factor 11 protein	yes (1)
ISIS 417002: MOE gapmer, nucleobases 1275 to 1318 of SEQ ID NO: 1 (Table 8) (antisense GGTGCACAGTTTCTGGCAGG; MOE gapmer, wing and gap sizes not given here)	Factor 11 protein	yes (1)

Continue with the substance presented below.
Take the substance ISIS 416864: MOE gapmer, nucleobases 1275 to 1318 of SEQ ID NO: 1 (Table 8) (antisense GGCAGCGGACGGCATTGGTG; MOE gapmer, wing and gap sizes not given here) and say whether its Inhibition of Factor 11 protein relative to the PBS control is less than 50%.
yes (1)

* * *

System: human Factor 11 mRNA
Experiment: Antisense inhibition of human Factor 11 in HepG2 cells by microwalk gapmers, lipofectin, 75 nM (Example 3)
Type: cell-based
Settings: HepG2 cells, lipofectin, gapmers targeted to nucleobases 738 to 762 of SEQ ID NO: 1
Method: These gapmers were designed by creating gapmers shifted slightly upstream and downstream (i.e. “microwalk”) of the original gapmers from Table 3. Gapmers were also created with various motifs, e.g. 5-10-5 MOE, 3-14-3 MOE, and 2-13-5 MOE. […] After a treatment period of approximately 24 hours, RNA was isolated from the cells and Factor 11 mRNA levels were measured by quantitative real-time PCR. Factor 11 mRNA levels were adjusted according to total RNA content, as measured by RIBOGREEN. […]
Strand notation (5' to 3'): a small letter for the sugar, then the base; units joined by * are phosphorothioate-linked, units joined directly phosphodiester-linked; [ ] holds rarer units or linkages, { } end groups; capitals alone tell only the bases. e = 2'-O-(2-methoxyethyl) (MOE); [5mC] = 5-methylcytosine; d = 2'-deoxy (DNA)
recorded.metric: % inhibition (%)
Give the value, in units of %, as a plain number.

Known % inhibition results, listed for orientation:
>>> df
                                  substance   experimental_target  measured_number
0  416832 (antisense e[5mC]*eA*eT*e[5mC]*e[5mC]*dG*dT*dG*d[5mC]*dA*dT*d[5mC]*dT*dT*dT*e[5mC]*eT*eT*eG*eG) [compound 416832]  human Factor 11 mRNA               79
1  416979 (antisense eT*e[5mC]*dA*dT*d[5mC]*d[5mC]*dG*dT*dG*d[5mC]*dA*dT*d[5mC]*dT*dT*eT*e[5mC]*eT*eT*eG) [compound 416979]  human Factor 11 mRNA               63
2  416833 (antisense eT*e[5mC]*eA*eT*e[5mC]*d[5mC]*dG*dT*dG*d[5mC]*dA*dT*d[5mC]*dT*dT*eT*e[5mC]*eT*eT*eG) [compound 416833]  human Factor 11 mRNA               65

For the substance shown here, 416977 (antisense eA*eT*d[5mC]*d[5mC]*dG*dT*dG*d[5mC]*dA*dT*d[5mC]*dT*dT*dT*d[5mC]*eT*eT*eG*eG*e[5mC]) [compound 416977] , give the reported % inhibition.
82

For the substance shown here, 416975 (antisense e[5mC]*e[5mC]*dG*dT*dG*d[5mC]*dA*dT*d[5mC]*dT*dT*dT*d[5mC]*dT*dT*eG*eG*e[5mC]*eA*eT) [compound 416975] , give the reported % inhibition.
87

* * *

This section presents substances with their documented reticulocytes values.
Assay: Hematology assays in cynomolgus monkeys (Example 45)
Type: in vivo
Settings: day −5

Known reticulocytes results, listed for orientation:
substance	result
ISIS 416850: MOE gapmer, nucleobases 1275 to 1318 of SEQ ID NO: 1 (Table 8) (antisense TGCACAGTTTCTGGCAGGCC; MOE gapmer, wing and gap sizes not given here)	1.2%
ISIS 416864: MOE gapmer, nucleobases 1275 to 1318 of SEQ ID NO: 1 (Table 8) (antisense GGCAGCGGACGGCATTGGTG; MOE gapmer, wing and gap sizes not given here)	0.9%
ISIS 416858: MOE gapmer, nucleobases 1275 to 1318 of SEQ ID NO: 1 (Table 8) (antisense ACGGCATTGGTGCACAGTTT; MOE gapmer, wing and gap sizes not given here)	0.9%
ISIS 417002: MOE gapmer, nucleobases 1275 to 1318 of SEQ ID NO: 1 (Table 8) (antisense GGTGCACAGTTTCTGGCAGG; MOE gapmer, wing and gap sizes not given here)	0.8%

Kindly review the next substance as well.
For the substance shown here, ISIS 416838: MOE gapmer, nucleobases 1018 to 1042 of SEQ ID NO: 1 (Table 6) (antisense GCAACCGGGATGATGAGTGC; MOE gapmer, wing and gap sizes not given here) , give the reported reticulocytes.
0.9%

* * *

This section presents substances with their documented percent inhibition of Factor 11 at 18.75 nM values.
Test system: human Factor 11 mRNA
Experiment: Dose-dependent inhibition of human Factor 11 in HepG2 cells, lipofectin 9.375-75 nM (Example 4)
Assay type: cell-based
Settings: 18.75 nM, relative to untreated control cells
Strand notation (5' to 3'): a small letter for the sugar, then the base; units joined by * are phosphorothioate-linked, units joined directly phosphodiester-linked; [ ] holds rarer units or linkages, { } end groups; capitals alone tell only the bases. e = 2'-O-(2-methoxyethyl) (MOE); [5mC] = 5-methylcytosine; d = 2'-deoxy (DNA)
Answer with the number, then the unit.

Known percent inhibition of Factor 11 at 18.75 nM results, listed for orientation:
In [3]: df
Out[3]:
                                  substance  result
0  416931 (antisense eG*eG*e[5mC]*dA*dT*dT*dG*dG*dT*dG*d[5mC]*dA*d[5mC]*dA*dG*dT*dT*eT*e[5mC]*eT) [compound 416931]     39%
1  416838 (antisense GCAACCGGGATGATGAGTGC; 5-10-5 gapmer, further chemistry not given here) [compound 416838]     51%
2  416864 (antisense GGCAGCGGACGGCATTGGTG; 5-10-5 gapmer, further chemistry not given here) [compound 416864]     43%

Kindly review the next substance as well.
For the substance shown here, 416984 (antisense e[5mC]*eA*dA*d[5mC]*d[5mC]*dG*dG*dG*dA*dT*dG*dA*dT*dG*dA*eG*eT*eG*e[5mC]*eA) [compound 416984] , give the reported percent inhibition of Factor 11 at 18.75 nM.
50%
